The measurements presented in this section are drawn from patent US20050209248A1.

Recorded MIC90 by entry
Test system: Mycobacterium avium intracellulare
Assay: Agar dilution method (Middlebrook 7H10)
Type: cell-based
Details: 504 h, 21 days at 37° C.
metric_name: MIC90 (µg/mL)

compound	value_measured
CO[C@H]1/C=C/O[C@@]2(C)Oc3c(C)c(O)c4c(O)c(c(/C=N/N5CCN(C)CC5)c(O)c4c3C2=O)NC(=O)/C(C)=C\C=C\[C@H](C)[C@H](O)[C@@H](C)[C@@H](O)[C@@H](C)[C@H](OC(C)=O)[C@@H]1C	32
NNC(=O)c1ccncc1	64
CC[C@H]1OC(=O)[C@H](C)[C@@H](O[C@H]2C[C@@](C)(OC)[C@@H](O)[C@H](C)O2)[C@H](C)[C@@H](O[C@@H]2O[C@H](C)C[C@H](N(C)C)[C@H]2O)[C@](C)(OC)C[C@@H](C)C(=O)[C@H](C)[C@@H](O)[C@]1(C)O	4
C[C@@H]1CN(c2c(F)c(N)c3c(=O)c(C(=O)O)cn(C4CC4)c3c2F)C[C@H](C)N1	8
CC(=O)NC[C@H]1CN(c2ccc(N3CCN(Cc4ccc([N+](=O)[O-])o4)CC3)c(F)c2)C(=O)O1.Cl [Polymorphic ‘Form A’]	32
CC(=O)NC[C@H]1CN(c2ccc(N3CCOCC3)c(F)c2)C(=O)O1	64

====

Tested on: Porphyromonas gingivalis
Assay: Agar dilution MIC
Type: cell-based
Settings: Porphyromonas gingivalis isolate
The entries below come with measured MIC values attached.
metric_name: MIC (µg/mL)

molecule	metric_name	limit_qualifier	value_measured
COc1c(N2C[C@@H]3CCCN[C@@H]3C2)c(F)cc2c(=O)c(C(=O)O)cn(C3CC3)c12	MIC	=	0.03
CCC[C@@H]1C[C@@H](C(=O)N[C@@H]([C@H]2O[C@H](SC)[C@H](O)[C@@H](O)[C@H]2O)[C@H](C)Cl)N(C)C1	MIC	≤	0.016
CC(=O)NC[C@H]1CN(c2ccc(N3CCOCC3)c(F)c2)C(=O)O1	MIC	=	1
C[C@@H](O)[C@H]1C(=O)N2C(C(=O)O)=C(SCCN=CN)C[C@H]12	MIC	≤	0.016
COc1c(N2CCNC(C)C2)c(F)cc2c(=O)c(C(=O)O)cn(C3CC3)c12 (stereo not shown)	MIC	=	0.06
CC(=O)NC[C@H]1CN(c2ccc(N3CCN(Cc4ccc([N+](=O)[O-])o4)CC3)c(F)c2)C(=O)O1.Cl [Polymorphic ‘Form A’]	MIC	≤	0.008
CN[C@H](CC(C)C)C(=O)N[C@H]1C(=O)N[C@@H](CC(N)=O)C(=O)N[C@H]2C(=O)N[C@H]3C(=O)N[C@H](C(=O)N[C@H](C(=O)O)c4cc(O)cc(O)c4-c4cc3ccc4O)[C@H](O)c3ccc(c(Cl)c3)Oc3cc2cc(c3O[C@@H]2O[C@H](CO)[C@@H](O)[C@H](O)[C@H]2O[C@H]2C[C@](C)(N)[C@H](O)[C@H](C)O2)Oc2ccc(cc2Cl)[C@H]1O	MIC	=	8

====

System: Prevotella bivia
Test: Agar dilution MIC
Type: cell-based
Conditions: Prevotella bivia isolate
metric_name: MIC (µg/mL)

compound	limit_qualifier	value_measured
C[C@@H](O)[C@H]1C(=O)N2C(C(=O)O)=C(SCCN=CN)C[C@H]12	=	0.03
CC(=O)NC[C@H]1CN(c2ccc(N3CCN(Cc4ccc([N+](=O)[O-])o4)CC3)c(F)c2)C(=O)O1.Cl [Polymorphic ‘Form A’]	=	0.125
COc1c(N2CCNC(C)C2)c(F)cc2c(=O)c(C(=O)O)cn(C3CC3)c12 (stereo not shown)	=	2
CCC[C@@H]1C[C@@H](C(=O)N[C@@H]([C@H]2O[C@H](SC)[C@H](O)[C@@H](O)[C@H]2O)[C@H](C)Cl)N(C)C1	>	32
CN[C@H](CC(C)C)C(=O)N[C@H]1C(=O)N[C@@H](CC(N)=O)C(=O)N[C@H]2C(=O)N[C@H]3C(=O)N[C@H](C(=O)N[C@H](C(=O)O)c4cc(O)cc(O)c4-c4cc3ccc4O)[C@H](O)c3ccc(c(Cl)c3)Oc3cc2cc(c3O[C@@H]2O[C@H](CO)[C@@H](O)[C@H](O)[C@H]2O[C@H]2C[C@](C)(N)[C@H](O)[C@H](C)O2)Oc2ccc(cc2Cl)[C@H]1O	>	16
Cc1ncc([N+](=O)[O-])n1CCO	=	1
CC(=O)NC[C@H]1CN(c2ccc(N3CCOCC3)c(F)c2)C(=O)O1	=	1
